folding stability dG unfold for assorted sequences
- test_description: folding stability dG unfold from trypsin proteolysis; higher = more stable

{"columns": ["polymer_sequence", "folding stability dG unfold"],
 "data": [
  ["SAGGSMGKTPDGGEVEFFEKPEENLIFAVVKHPDGSYYVAVFKKDEDKIELIDVKEVPEGEIEELASAGGSA [r2_336_TrMRF]", "1.26 kcal/mol"],
  ["SSITETKEFLLESEEEVEAIAEELKKPGVEVEVEVKEVERVDKKTGKKKKALKATITVKIPLPPPEKGKLSA [r9_962_JUSTAS]", "0.79 kcal/mol"],
  ["SMTIRIVDEKTKEVREIKIENLTVEKEKDGRYRMTREQVLEALKKLLPEDVKIVEVEENEDGELTIVVEPSA [r9_997_TrROS_Hall]", "2.41 kcal/mol"],
  ["SAGGSAGGKSPEDRQRENMKPVPPIEVVEIRIPIPPGMPIDQAKNIASNLMEHLGVDYVRIEITSAGGSAGG [r6_517_TrROS]", "0.679 kcal/mol"],
  ["SAGGMVVVAVEVDPVTKTATIVYAAPVPNLGGYVPIPAAAVAKRLTEELGLPDVKEVTVAQAAGDVPISAGG [r13_327_TrMRF]", "0.428 kcal/mol"],
  ["SAETVTITLPGATITVEKVDGKWIATVTKVEPGADKVTVEVTLTKVDEDGNTTTVTETVTIDAKTGKVLSAG [r14_724_TrROS_Hall]", "2.7 kcal/mol"],
  ["SAGGSAGGEMTAEELAEKLAEELKEKGYEVEVEVVEVEVEEDTVRIKIKLKDGRELEIELKIEPSAGGSAGG [r6_617_TrROS_Hall]", "2.58 kcal/mol"]
]}

---

- test_description: folding stability dG unfold from chymotrypsin proteolysis; higher = more stable
readout: folding stability dG unfold (kcal/mol)

{"columns": ["polymer_sequence", "readout", "readout_units", "reported"],
 "data": [
  ["SAGGAEVDPETKVVHIRIRARSAEELLAAIEALPADEVIIEVYNEETGKTERIRLSREELRKLLEEASAGGS [r16_797_TrROS_Hall]", "folding stability dG unfold", "kcal/mol", 2.82],
  ["SAGGSAGGSAGGSVTIPVPENVKVRIYPPNGGRREVTAAAGATITVPAPGGEEVRIEVETSAGGSAGGSAGG [r7_357_TrMRF]", "folding stability dG unfold", "kcal/mol", 0.715],
  ["SAGGSPSTVVPTLLTLEIVKKDEKGNETSETIPVLVEDSPEEARERLIEEIEKKYGAEVVKVTVKPESAGGS [r16_511_JUSTAS]", "folding stability dG unfold", "kcal/mol", -1.22],
  ["SAGGSAMVVPVASEEEARAVAEEAAARGEPVVIAFPGGRALVVETAAAPTPEPVLRVEEREVPPLLSAGGSA [r15_761_JUSTAS]", "folding stability dG unfold", "kcal/mol", 0.744],
  ["SAGGSAGGSALPEAEVLEVRFSPDGRRVDAVLRLDGELLVLRIDFPPDGTARIELYPAEDISAGGSAGGSAG [r3_167_TrMRF]", "folding stability dG unfold", "kcal/mol", 2.43],
  ["SADMVMFPMTGEFHFPGWRIKVEITLMFHFTPNGKFGPNFHPMIKIEIVPPPPPPKITEEEADKANENGSAG [r14_442_TrROS]", "folding stability dG unfold", "kcal/mol", 4.13],
  ["SAPEVEVFPGKDNSALVRVVFEFDGYRIEVVRRVPVEALKAGIPLEELPDVEILEVRVVKLPKPRPDELSAG [r14_856_TrMRF]", "folding stability dG unfold", "kcal/mol", 2.85]
]}

---

- test_description: folding stability dG unfold (combined trypsin and chymotrypsin); higher = more stable

{"columns": ["polymer_sequence", "folding stability dG unfold"],
 "data": [
  ["SAGGSAGGSAGGPSAVSSSSSSRTTTVPGTGTPLRVSSTTTTLDAATGASTTTTTTSPGASAGGSAGGSAGG [r11_1029_JUSTAS]", "< -1 kcal/mol"],
  ["SAGGSAGGSGSTVVEVEFPDARIVITVEPPGVLTVTVERPPFPVETVRLPDMTVEEAVAYALASAGGSAGGS [r20_8_JUSTAS]", "1.48 kcal/mol"],
  ["SAGGSAGGSAKPTYRVLVKNEDGEVLEAEVKVVDGKVEVTVNGKVYTFPKGAKIEIVKIEPVSAGGSAGGSA [r18_144_TrROS_Hall]", "3.08 kcal/mol"],
  ["SAGGSADPDSPYVIRFNKPYTTFSPDGTPIELTEDVLKRFKSEEEAKKAKEELEKKGAKVEPVEGSSAGGSA [r15_117_JUSTAS]", "-0.159 kcal/mol"]
]}

---

- test_description: folding stability dG unfold (combined trypsin and chymotrypsin); higher = more stable
Lab note: anything with folding stability dG unfold at or over -0.1 kcal/mol counts as y; the rest go in n.

{"columns": ["polymer_sequence", "class_label"],
 "data": [
  ["SAGGSAGGSANWYIRIHSPNGQPIWFPMKIKNVTPKGGEIEFKMRNPNGREMPFRVEIFPLESAGGSAGGSA [r18_163_TrROS]", "y"],
  ["SAGGSTVTFSSEEEIAKLKPVLKKGNPTTLYLNEVRERLLPNGEPVLVPRDVTRTITLVNGKLTESETSAGG [r13_835_JUSTAS]", "n"],
  ["SAGSITIPIDDPEEMKDQLKNIAENFGMSNQDAEQFKDQLKENIEIHRDGDRWYITIQPPPPPDPGQPPSAG [r5_717_TrROS]", "n"],
  ["SAGGSAMPPEWQREVVLTPVEIDIPEPPEVEVVEYDPSTGTITISVPKSPLTLTYDALTGTVHTIGSAGGSA [r15_452_JUSTAS]", "n"],
  ["SAGGSAGGSAKKPTAEEILKKLKLPEGAKIVKIEVEYDKKTKKVTIKIEIKVNGKTYTFEIKSAGGSAGGSA [r18_354_TrROS_Hall]", "y"],
  ["SAGGSAGGSEKIKEALKELGYDVEIEEIEVKKNKNGKLEIKIKLKPGMSEEEKKRIEEALKKLSAGGSAGGS [r12_352_TrROS_Hall]", "y"],
  ["SAGGSAGGSAGGKNKYYVRVKIKNPNGRTRKINFPFDDPDQIKEQAQKEGWKIDEVEPVSAGGSAGGSAGGS [r10_882_TrROS]", "n"]
]}

---

- test_description: folding stability dG unfold from trypsin proteolysis; higher = more stable
Each entry below lists one item and its recorded folding stability dG unfold value.

{"columns": ["polymer_sequence", "folding stability dG unfold"],
 "data": [
  ["SAGGSAGGAEITIELTEDGTLRITVDGKKLEIRLEPAPPPVEVKTERVLDPDTDELTTRTETVLSAGGSAGG [r6_34_TrROS_Hall]", "0.203 kcal/mol"],
  ["SAGGSAGGSAGGSGMKYKVTVTFPGGEVRSLEVDSVEEALEKLKEENRPIKEVTVEPLESAGGSAGGSAGGS [r4_213_JUSTAS]", "2.2 kcal/mol"],
  ["SAGGSVVTTTFTYPDGTVVTTTTTPRPETLLTTTTTTTFYPDKPVKVAPGKEVVTTVTTTTTTVTPAASAGG [r13_780_JUSTAS]", "0.378 kcal/mol"],
  ["SAGGSAGGMLLVRIKVRRPDGSEETIVLEFESEEELKAAIEELLPPGWEVVEIELVPLGEELPESAGGSAGG [r6_872_TrROS_Hall]", "4.55 kcal/mol"]
]}

---

- test_description: folding stability dG unfold from chymotrypsin proteolysis; higher = more stable
Classify as follows. Reported folding stability dG unfold greater than or equal to 2 kcal/mol: fulfilled. Reported folding stability dG unfold below: not fulfilled.

{"columns": ["polymer_sequence", "class_label"],
 "data": [
  ["SAGGSAGGSADPNAFPITIFTFKMEIEDVEKTPNGQPELRYKMEVVEIRPIWLPPDDLEDLSAGGSAGGSAG [r3_121_TrROS]", "fulfilled"],
  ["SAGGSAGGSAGKKFKITEIHPGDNHHHITVKWKRDGKKRERTVMVPSGPEMAKKADIIIISAGGSAGGSAGG [r11_921_TrROS]", "not fulfilled"],
  ["SAGGSAGGSAGGNITVTEDGWIVIEIPYYSPDGGPSPITIVIPIPKMPPEEAEELADKGSAGGSAGGSAGGS [r10_1096_TrROS]", "not fulfilled"],
  ["SAGGMLPGLRPLLLAVLVPAEEPLEPEQVRELAEELRRELEEKGYGFAFRAIELEDFQLIIVDVVDPFSAGG [r13_442_TrMRF]", "fulfilled"],
  ["SAGKINIPPDTDITVKISTEKKPNPPSPEEEEYVGVSYIKVKKNPDGSIEVEEEKFEIISKEEAEKMGLSAG [r5_340_JUSTAS]", "not fulfilled"],
  ["SAGGSAGGSAGGGRVELELTFIREDGYAVKVRIEVDEDGNLRIEVEVVKLPPAASPEELSAGGSAGGSAGGS [r10_878_TrROS_Hall]", "fulfilled"],
  ["SAGSSTPGSEVVRVTSEVSEGESNRTVSYTTYVFEPGGPALRPLSTSTTTVPAAPGVPEGGTKTISLPGSAG [r5_861_JUSTAS]", "not fulfilled"],
  ["SAGGSAGGGSISIPGPGPVSATTDPVTKTLVTVTYPTSEVRIPIEGDKFTEAETTPLPPPPALTSAGGSAGG [r6_847_JUSTAS]", "not fulfilled"],
  ["SEKIVIEFPNPEEATVELIKSIIKPYLEPGEKVKIKVFSKDGKPLFEKELEFNEVEEVPKEKDYLIVIEKSA [r9_264_TrMRF]", "not fulfilled"],
  ["SAGDVVEIEITYWVPPDEMTVDEFVDHIMSMLPGVKVKSIEIDEIHPYPDGWYEVTVNYTIEVPPGQEISAG [r5_682_TrROS]", "fulfilled"],
  ["SAGGSAGGSAGPTVASVEVLEYDPETGYLTVRIYIPDNGEWVDVKAPVGTAEEIVKAAEKSAGGSAGGSAGG [r17_111_TrMRF]", "not fulfilled"],
  ["SAGGKIKIKINGKTYTVEDAEIIEVKKNKNGKKEIIIKIKVNGKTYEIVISEEDLKKIKPGDTITLKSAGGS [r16_638_TrROS_Hall]", "fulfilled"]
]}

These measurements were taken from the supplement of paper PMC12764529.
